# assay: yeast display, Sf9 membrane polyspecificity reagent, FACS + sequencing; frameworks hold sequencing errors
readout.label: polyreactivity (PSR sort gate)

QVQLVESGGGLVQAGGSLRLSCAASGYIFEYYAMGWYRQAPGKERELVAAISWSGGSTYYADSVKGRFTISRDNAKNTVYFQLNSLKPVDTAVYYCAAEYVTYQQGLWGYDYWGQGTQVTVSS = low polyreactivity
QVQLVESGGGLVQAGGSLRLSCAASGRTFYGYAMGWYRQAPGKERELVASISRDGSTNYADSVKGRFTISRDNAKNTVYLQMNSLKPEDTAVYYCAGDIWYYRYPIYYYSYDYWGQGTQVTVSS = low polyreactivity
